- Subject of test: T1, human 5T4-His protein (human, UniProt Q13641 32-355)
- T1 construct: also called recombinant 5T4 protein (human 5T4-his tag); human 5T4 protein; not shown: His tag
- T1 sequence (looked up): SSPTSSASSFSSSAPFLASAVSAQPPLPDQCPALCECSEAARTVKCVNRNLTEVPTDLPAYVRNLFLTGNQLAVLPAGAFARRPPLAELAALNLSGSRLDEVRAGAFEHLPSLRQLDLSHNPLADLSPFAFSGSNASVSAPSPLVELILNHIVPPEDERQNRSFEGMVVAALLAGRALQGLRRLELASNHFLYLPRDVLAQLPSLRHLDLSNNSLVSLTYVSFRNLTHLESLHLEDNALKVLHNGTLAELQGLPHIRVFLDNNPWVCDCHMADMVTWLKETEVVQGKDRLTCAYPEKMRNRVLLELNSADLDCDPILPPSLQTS
- Test details: SPR Biacore, Protein A capture
Reported property: koff (s⁻¹)
A number alone suffices; assume s⁻¹.

1. 389G2 chimeric antibody (antibody, V domains shown, chimeric mAb) VH: QVQLQQPGTELVKPGASVKLSCKASGYTFTSYWMHWVKQRPEQGLEWIGNINPSNGNTNYNERFKSKATLTVDKSSSTAYMQLSSLTSEDSTVYYCARGGWDFDYWGQGTTLTVSS VL: QVVLTQSPAIMSASPGEKVTMTCSASSSVRYIHWYQQRSGTSPKRWIYDTSKLTSGVPVRFSGSGSGTSFSLTISSMEAEDAATYYCQQWTSKPPWTFGGGTKLEIK : 0.000138

I have this binder here, 449H9 chimeric antibody (antibody, V domains shown, chimeric mAb) VH: QVQLQQSGAELVRPGSSVRISCKASGYAFSNYWMNWVKQRPGQGLEWIGQIYPGDGDTNYNGKFKNKATLTTDKSSSTAYMQLSSLTSEDSAVYFCARHYDYPYYYAMDYWGQGTSVTVSS VL: DIQMTQSPSSLSASLGERVSLTCRASQDIGIALTWLQQEPDGTIKRLIYATSSLDSGVPKRFSGSRSGSDYTLTISSLESEDFVDYYCLQYIISPYTFGGGTKLEIK , and I need its recorded koff.
0.000115

I have this binder here, 493E10 chimeric antibody (antibody, V domains shown, chimeric mAb) VH: DVQLVESGGGLVQPGGSRKLSCAASGFTFSSFGMHWVRQAPEKGLEWVAYISSGSSTIYYADTVKGRFTISRDNPKNTLFLQMTSLRSEDTAMYYCARNRAYHREAMDYWGQGTSVTVSS VL: DIVLTQSPASLTVSLGQRATISCRASQSVSSSSYNYMHWYQQKPGQPPKLLIKSASNLESGVPARFSGSGSGTDFTLNIHPVEEEDTATYYCQHSWEIPYTFGGGTKLEIK , and I need its recorded koff.
0.000402

I have this binder here, 393E9 chimeric antibody (antibody, V domains shown, chimeric mAb) VH: EVKLVESGGGLVQPGGSLSLSCAASGFTFTDYYMSWVRQPPGKALEWLGFIRNKGNGYTTENSASVKGRFTISRDNSQSILYLQMNALRAEDSATYYCARYRGNPHYAMDYWGQGTSVTVSS VL: DIVLTQFPASLAVSLGQRATISCRASESVEFYGTSFLQWYQQKPGQPPKLLIYGASNVESGVPARFSGSGSGTDFSLSIHPVEEDDIAMYFCQQSRKVPSTFGGGTKLEIK , and I need its recorded koff.
0.000183

I have this binder here, 14G12 chimeric antibody (antibody, V domains shown, chimeric mAb) VH: EVQLQQSGPELVKPGASVKISCKASGYAFSSSWMNWVKQRPGKGLEWIGRIYREDGHTNYNGKFKGKATLTADKSSTTAYMQLTSLTSEDSAVYFCANGGAMDYWGQGTSVTVSS VL: DIQMTQSTSSLSASLGDRVTISCRASQDISNYLNWYQQKPDGTVKLLIYYTSRLHSGVPSRFSGSGSGTDYSLTISNLEQEDIATYFCQQDNTLPWTFGGGTKLEIK , and I need its recorded koff.
0.000222

I have this binder here, 49C5 chimeric antibody (antibody, V domains shown, chimeric mAb) VH: EVQLQQSGPELVKPGASVKISCKASGYTFTDYYMNWVKQSHGKSLEWIGDINPYSGGATNNQKFKGKATLTVDKSSSTAYIELRSLTSEDSAVYFCARGSIYYDSTANYFDYWGQGTTLTVSS VL: DIQMTQSPASLSASVGETVTITCRASENIYSYLAWYQQKQGKSPQLLVYNAKSLTEGVPSRFSGSRSGTQFSLKINSLQPEDFGSYYCQHHYVTPWTFGGGTKLEIK , and I need its recorded koff.
0.000337
